This collection of values is drawn from PubChem BioAssay.

- test_method_notes: growth inhibition, single agents and combos, HTB85, cell-based, BGB or cisplatin IC20 combos, synergistic combos for chromothripsis tumors (AID 1671453);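 note: cells exposed for 96 hours before readout; 0% = vehicle DMSO and 100% = high DMSO killing control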
- condition_info: HTB85 osteosarcoma cells, drug combinations, measured here: with cisplatin IC20, at 0.5 µM, stronger effect = higher value
The entries below come with measured inhibition values attached.
metric: inhibition (%)

compound_string=C[C@]12CCCN1CC1=NNC(=O)c3cc(F)cc4[nH]c2c1c34 value_measured=10.2
compound_string=Cc1cn([C@@H]2O[C@H](CO)[C@@H](O)[C@@H]2F)c(=O)[nH]c1=O value_measured=-7.9
compound_string=Nc1ncnc2c1c(-c1cnc3[nH]ccc3c1)nn2C1CCCC1 value_measured=38.8
compound_string=O=c1[nH]cnc2ccccc12 value_measured=2.1
compound_string=CS(=O)(=O)c1ccc(-c2nnc(/C=C/c3nnc(-c4ccc(C#N)cc4)o3)n2-c2ccccc2Cl)nc1 value_measured=4.78
compound_string=O=C(/C=C/c1cccc(S(=O)(=O)Nc2ccccc2)c1)NO value_measured=49.8
compound_string=c1cc(Nc2cc(C3CC3)[nH]n2)nc(Nc2ccc3nc[nH]c3c2)n1 value_measured=83.5
compound_string=Cc1ccc2nc(NCCN)c3ncc(C)n3c2c1 value_measured=-7.65
compound_string=COc1cc(C=O)c([N+](=O)[O-])cc1OC value_measured=-24.3
compound_string=Cc1ccc([N+](=O)[O-])cc1S(=O)(=O)N(C)/N=C/c1cnc2ccc(Br)cn12 value_measured=90.8
compound_string=Nc1ccc(-c2ccc3ncc4ccc(=O)n(-c5cccc(C(F)(F)F)c5)c4c3c2)cn1 value_measured=16.8
compound_string=O=c1cc(N2CCOCC2)oc2c1ccc1ccccc12 value_measured=-3.29

###

- test_method_notes: growth inhibition of DIPG cells – cell-based, MIPE5.0 library, qHTS (AID 1347068);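 for IC50: cells exposed to compound for 48 hours before viability readout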
- condition_info: SU-DIPG-XXV viability
Inconclusive results are not listed. Activity calls are given as the source filed them. No cut-off is given here; in the data, nearly all actives have IC50 up to about 30 µM.
Outcomes: active, inactive

compound=Cc1ccccc1-n1nc(-c2c(-c3ccc(F)cc3)nn3c2NC[C@@H](CO)C3)ccc1=O assigned_category=inactive
compound=COc1cc(OC2CCN(C)CC2)ccc1Nc1ncc2c(n1)n(C1CCCC1)c(=O)n2C assigned_category=active
compound="CCc1ccc2nc(Nc3cc(Cc4ccccc4)nc(NC4CCC(O)CC4)n3)sc2c1 (centres undefined)" assigned_category=inactive
compound="NC1CCCN(c2c(/C=C3\\SC(=O)NC3=O)cccc2-c2ccccc2)C1 (centres undefined)" assigned_category=inactive
compound=CC(=O)O/N=C1/C(c2c(O)[nH]c3cc(Br)ccc23)=Nc2ccccc21 assigned_category=active
compound="Cc1c(O)cccc1C(=O)NC(CSc1ccccc1)C(O)CN1CC2CCCCC2CC1C(=O)NC(C)(C)C (centres undefined)" assigned_category=active
compound=CCCS(=O)(=O)Nc1ccc(F)c(C(=O)c2c[nH]c3ncc(-c4ccc(Cl)cc4)cc23)c1F assigned_category=inactive
compound=COc1nc(OCc2cccc(-c3ccccc3)c2C)ccc1CNCCNC(C)=O assigned_category=active
compound="Clc1ccc(C(c2ccc(Cl)cc2)n2cc[n+](CC(OCc3ccc(Cl)cc3Cl)c3ccc(Cl)cc3Cl)c2)cc1 (centres undefined)" assigned_category=active

###

- test_method_notes: growth inhibition, MDA-MB-436, cell-based, BGB or cisplatin combos, synergistic combos for chromothripsis tumors (AID 1671458);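 note: cells exposed for 96 hours; 0% = vehicle DMSO and 100% = killing by high DMSO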
- condition_info: MDA-MB-436 breast carcinoma growth inhibition, drug combinations; measured here: BGB combination; at 0.5 µM; stronger effect = higher value
# key: entry, value: inhibition
metric: inhibition (%)

compound_string=CO[C@H]1/C=C/O[C@@]2(C)Oc3c(C)c(O)c4c(O)c(c(/C=N\N5CCN(C6CCCC6)CC5)c(O)c4c3C2=O)NC(=O)/C(C)=C\C=C\[C@H](C)[C@H](O)[C@@H](C)[C@@H](O)[C@@H](C)[C@H](OC(C)=O)[C@@H]1C metric=inhibition value_measured=-15.7
compound_string=COc1ccc(C(=O)C2CCN(CC(=O)N(Cc3nc4c(c(=O)[nH]3)COCC4)CC3CC3)CC2)cc1 metric=inhibition value_measured=-9.1
compound_string=Cc1ccc([N+](=O)[O-])cc1S(=O)(=O)N(C)/N=C/c1cnc2ccc(Br)cn12 metric=inhibition value_measured=73.3
